# experimental_target: T1, Tumor Necrosis Factor-alpha (TNF-α)
# T1 construct: also called TNF-a
# T1 sequence (P01375 77-233): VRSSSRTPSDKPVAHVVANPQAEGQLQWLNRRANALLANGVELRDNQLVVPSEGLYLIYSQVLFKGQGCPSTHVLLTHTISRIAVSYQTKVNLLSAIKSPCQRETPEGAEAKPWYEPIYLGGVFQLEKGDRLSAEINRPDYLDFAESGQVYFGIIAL
# protocol_notes: SPR equilibrium, Biacore A100, TNF-α captured on chip
pKd: −log10 of the molar value.
measured_metric: pKd

>>> quantitative_readout("FERDPLMMPWSFLQSRQGSC [TNF1 lead peptide]")
3.80
